Just for reference, patent US20230202989A1 is where these values come from.

Quick list: pIC50 per entry.
tested on: IL-1β; test: PBMC assay: inhibition of IL-1β release after LPS stimulation (MSD); format: cell-based; conditions: Homo sapiens, PBMC, 6 h, human PBMCs, 100 ng/ml LPS for 6 hrs, MSD, 96 well plates; read-out: IL1β IC50
In textbook form, pIC50 equals minus log to base ten of the concentration in mol/L.

Below: 3 compounds and their reported pIC50.
CC(C)c1nn(CC(=O)NC2(C)CC(O)C2)c(=O)c2ccc(C(F)(F)F)cc12 (centres unmarked) :: 5.58
CC(C)c1nn(CC(=O)Nc2ccc3nncn3c2)c(=O)c2ccc(C(F)(F)C(F)(F)F)cc12 :: 5.90
CC(C)c1ccc2c(=O)n(CC(=O)Nc3ccncn3)nc(C(C)C)c2c1 :: 6.77

Exam item: Report pIC50 for `CC(C)c1nn(CC(=O)Nc2ccc3nncn3c2)c(=O)c2ccc(C3CC3)cc12` please.
Marked response: 6.99

Exam item: Report pIC50 for `C[C@]1(O)C[C@@H](NC(=O)Cn2nc(C(F)F)c3cc(C(F)(F)F)ccc3c2=O)C1` please.
Marked response: 6.52

Exam item: Report pIC50 for `CC(C)c1nn(CC(=O)Nc2ccc3ncnn3c2)c(=O)c2ccc(C(F)(F)F)cc12` please.
Marked response: 6.48

====

tested on: TNF; assay: PBMC assay: TNF cytokine levels after LPS stimulation (MSD); format: cell-based; settings: PBMC, human PBMCs, 100 ng/ml LPS for 6 hrs
pEC50: −log10 of the molar value.
Quick list: pEC50 per entry.

CC[C@]1(O)C[C@@H](NC(=O)Cn2nc(C(C)C)c3cc(Br)ccc3c2=O)C1 :: < 4.70

Let us examine a further case.
Exam item: Report pEC50 for `CC[C@]1(O[Si](C)(C)C(C)(C)C)C[C@@H](NC(=O)Cn2nc(C(C)C)c3cc(Br)ccc3c2=O)C1` please.
Marked response: < 4.70

====

system: IL-1β; assay: PBMC assay: inhibition of IL-1β release after LPS stimulation (MSD); format: cell-based; conditions: Homo sapiens, PBMC, 6 h, human PBMCs, 100 ng/ml LPS for 6 hrs, MSD, 96 well plates; read-out: IL1β IC50
experimental.endpoint: pIC50
In textbook form, pIC50 equals minus log to base ten of the concentration in mol/L.

COC1(c2nn(CC(=O)Nc3ccc4nncn4c3)c(=O)c3ccc(C(F)(F)F)cc23)CC1 :: 5.00
CCc1nn(CC(=O)Nc2ccncn2)c(=O)c2ccc(OC)cc12 :: 5.91

Exam item: Report pIC50 for `CC(C)c1nn(CC(=O)N[C@H]2CC[C@@](C)(O)CC2)c(=O)c2ccc(C(F)(F)F)cc12` please.
Marked response: 6.41

Exam item: Report pIC50 for `CC(C)c1nn(CC(=O)Nc2ccncn2)c(=O)c2ccc(C(C)(C)O)cc12` please.
Marked response: 5.36

====

Quick list: pIC50 per entry.
tested on: IL-1β; assay: PBMC assay: inhibition of IL-1β release after LPS stimulation (MSD); assay type: cell-based; details: Homo sapiens, PBMC, 6 h, human PBMCs, 100 ng/ml LPS for 6 hrs, MSD, 96 well plates; read-out: IL1β IC50
In textbook form, pIC50 equals minus log to base ten of the concentration in mol/L.

CC(C)c1nn(CC(=O)N[C@H]2C[C@@](C)(O)C2)c(=O)c2ccc(OC(F)(F)F)cc12 :: 5.87
CCc1nn(CC(=O)N[C@H]2C[C@@](C)(O)C2)c(=O)c2ccc(C(C)C)cc12 :: 6.62
CCN1CC[C@@H](NC(=O)Cn2nc(C(C)C)c3cc(C(F)(F)F)ccc3c2=O)[C@@H](O)C1 (single isomer, unassigned) :: 5.37
CC(C)c1nn(CC(=O)Nc2ccc3nncn3n2)c(=O)c2ccc(C(F)(F)F)cc12 :: 7.52
CC(C)c1ccc2c(=O)n(CC(=O)Nc3ccc4nncn4n3)nc(C(C)C)c2c1 :: 7.35

Exam item: Report pIC50 for `C[C@]1(O)C[C@@H](NC(=O)Cn2nc(C3CC3)c3cc(Cl)ccc3c2=O)C1` please.
Marked response: 6.39

Exam item: Report pIC50 for `CC(C)c1nn(CC(=O)N[C@H]2CC[C@@H]2O)c(=O)c2ccc(C(F)(F)F)cc12` please.
Marked response: 6.31

Exam item: Report pIC50 for `CCN1CC[C@@H](O)[C@@H](NC(=O)Cn2nc(C3CC3)c3cc(C(F)(F)F)ccc3c2=O)C1` please.
Marked response: 6.79

Exam item: Report pIC50 for `CC(C)c1nn(CC(=O)Nc2ccc3nnnn3n2)c(=O)c2ccc(C(F)(F)F)cc12` please.
Marked response: 6.81

Exam item: Report pIC50 for `O=C(Cn1nc(C(F)F)c2cc(C(F)(F)F)ccc2c1=O)Nc1ccncn1` please.
Marked response: 6.36

Exam item: Report pIC50 for `CC(C)c1nn(CC(=O)Nc2ccc3nncn3c2)c(=O)c2ccc(Cl)cc12` please.
Marked response: 7.39

Exam item: Report pIC50 for O=C(Cn1nc(C(O)C(F)(F)F)c2cc(C(F)(F)F)ccc2c1=O)Nc1ccc2nncn2c1 (stereo not shown) please.
Marked response: 6.23

Exam item: Report pIC50 for `CC(C)c1nn(CC(=O)Nc2ccc3nncn3n2)c(=O)c2ccc(C3(F)CC3)cc12` please.
Marked response: 7.82

Exam item: Report pIC50 for `CC(C)c1nn(CC(=O)N[C@H]2CCc3nncn3C2)c(=O)c2ccc(C(F)(F)F)cc12` please.
Marked response: 6.34
